study-system: HCV polymerase (NS5B570n-Con1) (Hepatitis C virus genotype 1b)
Construct: contains a 21 amino acid deletion at the C-terminus relative to the full-length HCV polymerase; 6-histidine (N)
assay-text: HCV NS5B RNA polymerase activity assay
Examples of compounds with documented pIC50 follow.
Note: pIC50 values are expressed as the negative base-10 logarithm of concentration in M.

The examples below pair each entry with its known result.
[[record]]
compound = "COc1cc(CN(Cc2ccccc2)S(C)(=O)=O)c(-c2ccc[nH]c2=O)cc1C(C)(C)C [Compound I-26]"
value_type = "pIC50"
recorded_value = 6.84

[[record]]
compound = "COc1cc(CN2C(=O)CC[C@@H]2CO)c(-c2ccc[nH]c2=O)cc1C(C)(C)C [Compound I-83]"
value_type = "pIC50"
recorded_value = 6.84

[[record]]
compound = "COc1cc(C(=O)N(C)CC#N)c(-c2ccc[nH]c2=O)cc1C(C)(C)C [Compound I-66]"
value_type = "pIC50"
recorded_value = 6.82

[[record]]
compound = "COc1cc(CN2C(=O)OC[C@H]2C(C)C)c(-c2ccc[nH]c2=O)cc1C(C)(C)C [Compound I-75]"
value_type = "pIC50"
recorded_value = 7.07


Alright, here's another compound for you.
Measured pIC50 of CCC1(CC)C(=O)C=CN(Cc2cc(OC)c(C(C)(C)C)cc2-c2ccc[nH]c2=O)C1=O [Compound I-39] : 6.80

----------
Examples of compounds with documented melting point follow.

The examples below pair each entry with its known result.
[[record]]
structure_as_smiles = "CCOC(=O)c1cc(OC)c(C(C)(C)C)cc1-c1ccc[nH]c1=O"
recorded_value = "214 to 215 °C"

[[record]]
structure_as_smiles = "COc1cc(C(=O)N(C)Cc2ccncc2)c(-c2ccc[nH]c2=O)cc1C(C)(C)C"
recorded_value = "199 to 201 °C"


Alright, here's another compound for you.
Measured melting point of `CCOC(=O)[C@H]1CCC(=O)N1Cc1cc(OC)c(C(C)(C)C)cc1-c1ccc[nH]c1=O` : 92 to 95 °C

----------
Examples of compounds with documented melting point follow.

[[record]]
compound = "COc1cc(C#N)c(-c2ccc[nH]c2=O)cc1C(C)(C)C"
recorded_value = "247 to 249 °C"

[[record]]
compound = "COc1cc(C(=O)N(C)CC#N)c(-c2ccc[nH]c2=O)cc1C(C)(C)C"
recorded_value = "211 to 212 °C"


Measured melting point of COc1cc(CN(CC2CCN(C(C)=O)C2)S(C)(=O)=O)c(-c2ccc[nH]c2=O)cc1C(C)(C)C (stereo not drawn) : 196 to 198 °C
